System: Fibroblast
test: Multiplex assay against human fibroblast
Format: toxicity, cell-based
measurement.parameters: 24 h, 10 µM, compound concentration 10 uM, replicate 1
measure: Population Hoechst High Intensity Objects (%)

>  <molecule>
CN1CCCC(n2nc(Cc3ccc(Cl)cc3)c3ccccc3c2=O)CC1.Cl (centres undefined) [AZELASTINE HYDROCHLORIDE]

>  <measurement.unit>
%

>  <readout.number>
18

$$$$
>  <molecule>
COc1cc(-n2cnc3cc(-c4ccc(Cl)cc4)sc3c2=O)ccc1OCCN1CCCC1

>  <measurement.unit>
%

>  <readout.number>
16

$$$$
>  <molecule>
OC1(c2ccc(Cl)cc2)CCN(Cc2c[nH]c3ccccc23)CC1

>  <measurement.unit>
%

>  <readout.number>
43

$$$$
>  <molecule>
CN(C)CC#Cc1ccc(OCCCc2sc(N3CCc4cccc(C(=O)Nc5nc6ccccc6s5)c4C3)nc2C(=O)O)c(F)c1 [A-1155463]

>  <measurement.unit>
%

>  <readout.number>
9

$$$$

These data points were gathered from ChEMBL document CHEMBL4689842.
